# TARGET_DESC: T1, GLP-1 receptor present in the plasma membranes isolated from RINm5F cells (UniProt P32301 22-463, limits assumed)
# T1 construct: whole, on cells
# T1 sequence (looked up): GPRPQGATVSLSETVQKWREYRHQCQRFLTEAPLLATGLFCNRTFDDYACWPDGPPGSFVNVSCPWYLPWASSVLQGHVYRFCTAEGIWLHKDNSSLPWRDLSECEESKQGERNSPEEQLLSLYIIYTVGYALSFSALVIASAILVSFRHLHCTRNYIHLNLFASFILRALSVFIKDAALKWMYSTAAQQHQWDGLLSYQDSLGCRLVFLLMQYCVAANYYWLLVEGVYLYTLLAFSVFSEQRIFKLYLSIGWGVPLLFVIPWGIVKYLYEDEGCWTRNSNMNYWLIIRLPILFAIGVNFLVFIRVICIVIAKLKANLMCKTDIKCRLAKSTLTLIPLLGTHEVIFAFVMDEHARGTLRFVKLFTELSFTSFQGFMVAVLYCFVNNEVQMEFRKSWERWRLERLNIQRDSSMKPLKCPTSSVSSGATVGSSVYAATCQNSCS
# ASSAY_EXPLANATION: 125I-GLP-1 displacement, RINm5F plasma membranes
Ends that are not written are not given here. * marks the point of attachment. Palmitoyl = CCCCCCCCCCCCCCCC(=O)*
Under this convention, TRUE denotes IC50 strictly below 0.008 µM and FALSE denotes IC50 at or above 0.008 µM.

- BINDER: "HSQGTFTSDYARYLDARRAREFIKWLVRGRC(PEG22kD) [G2185]"
  ASSIGNED_LABEL: "FALSE"
- BINDER: "HSQGTFTSDYARYLDAKKAKEFIAWLVKGRG [G59]"
  ASSIGNED_LABEL: "TRUE"
- BINDER: "HSQGTFTSDYARYLDARRAREFIAWLVRGRGK [G85]"
  ASSIGNED_LABEL: "TRUE"
- BINDER: "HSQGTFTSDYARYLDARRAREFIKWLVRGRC(PEG43kD) [G4185]"
  ASSIGNED_LABEL: "FALSE"
- BINDER: "HSQGTFTSDYARYLDARRAREFIKWLVRGRGK(Palmitoyl) [G182]"
  ASSIGNED_LABEL: "FALSE"
- BINDER: "HSQGTFTSDYSKYLEGQAAKEFIAWLVKGR-NH2 [G5]"
  ASSIGNED_LABEL: "TRUE"
- BINDER: "HSQGTFTSDYARYLDAAKAKEFIAWLVKGRG [G61]"
  ASSIGNED_LABEL: "FALSE"
- BINDER: "HSQGTFTSDYARYLDARRAKEFIAWLVKGR-NH2 [G55]"
  ASSIGNED_LABEL: "FALSE"
- BINDER: "HSQGTFTSDYARYLDARRAK(Palmitoyl)EFIKWLVRGRG (not fully specified; printed as HSQGTFTSDYARYLDARRAK(FA)EFIKWLVRGRG) [G183]"
  ASSIGNED_LABEL: "FALSE"
- BINDER: "HSQGTFTSDYAKYLDARRAKEFIAWLVKGCG [G76]"
  ASSIGNED_LABEL: "FALSE"
- BINDER: "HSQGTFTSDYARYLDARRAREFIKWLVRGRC [G185]"
  ASSIGNED_LABEL: "TRUE"
